The measured values listed here are drawn from the supplement of paper PMC12764529.

Assay: folding stability dG unfold (combined trypsin and chymotrypsin); higher = more stable
readoutName: folding stability dG unfold (kJ/mol)
Write the value in kJ/mol as a bare number.

Example entries begin here.
[
  {
    "primarySequence": "SAGGSAGGSGMNVKTIKIYSPEGGETTVPVTGTTVTIGGETVTVTSDVVVPVPPTIKSIEVVGSAGGSAGGS [r12_779_JUSTAS]",
    "number": 1.16
  },
  {
    "primarySequence": "SAGGSAGGWRIKIMPMGGKKKKIPIDSPEEIIDKIQKEAKEDGLPGNVRITVEYNGQKRTFTIRSAGGSAGG [r6_532_TrROS]",
    "number": 2.75
  },
  {
    "primarySequence": "SAGGSAGGMVTSTDPATGIVYSLDPTTGVWSAQTVTLPPITIPVSEVPELLKALPPGTPILVLASAGGSAGG [r6_104_JUSTAS]",
    "number": 4.79
  }
]

Data request: Quick one: folding stability dG unfold for SAGGSAGGSAMTITVEVPPSVPAEEAAERVAERLRAEFPVPDIRVTVETTPDGTVTVTITEASAGGSAGGSA [r18_1_JUSTAS] ?
Data returned: 1.15

Data request: What about this sequence? SAGGSAGGRLEPITEEEALELARLLAEYIRRLFPGDPRPHLVVVPILVPTPEDGYRLFLAVIAESAGGSAGG [r6_844_TrMRF]
Data returned: 15.6

Data request: What about this sequence? SAGGSAGGMTVPITLPLDEYSPEEVEAKIKAIREEIEKKNPDKKISINVTLVPQPPEPTPENLRSAGGSAGG [r6_729_JUSTAS]
Data returned: 1.25

----------
Listed here: items and their measured folding stability dG unfold.
Assay: folding stability dG unfold from chymotrypsin proteolysis; higher = more stable
Write the value in kcal/mol as a bare number.

[
  {
    "primarySequence": "SAMTLTLTVPPGAKVRVRITNENGETTEIEVEPGETVTITLPAGSTVRVEVEVVDPDGRKRTETFTLKPSAG [r14_568_TrROS_Hall]",
    "folding stability dG unfold (kcal/mol)": 3.22
  }
]

Data request: Quick one: folding stability dG unfold for SAKLAKELAEELAKEILPKFPNIKAVKVEVEPLGDYAIATIIWEKENGKPIISKAIIEKNKKILKVDISSAG [r14_719_TrMRF] ?
Data returned: 1.26

Data request: What about this sequence? SAGGSAMETIELKLEDGSTLTIERDPENPNTLTITFEDGRKITVTADSAEEALKKALELAKEGKLPSAGGSA [r15_38_TrROS_Hall]
Data returned: 4.58

Data request: What about this sequence? SAGGSAGGLPEGDIYRIRVTLPNGNTFTITFPVKSVEQAKDFAKSFLESLGLPDVKVDIEPVPVSAGGSAGG [r6_844_TrROS]
Data returned: 4.2

Data request: What about this sequence? SAGGMTLTLTIKVKTTTVEKDAATGKETVRTETRTLTVTIEAESEEEALAALKKLLEELGFEIVEVTSAGGS [r16_459_TrROS_Hall]
Data returned: 5.1

Data request: What about this sequence? SAGGSAGGSAGGMKVTTINLPDGTTIEYYPETGSVTIHPSDGSVSTRPDLTLEDVLAALSAGGSAGGSAGGS [r10_569_JUSTAS]
Data returned: 1.81

Data request: What about this sequence? SAGGFKIEIEKNPEPDGIVIVIEYDMPPKGIKDFIEELFGPNPKDVTTEEHPNGRTEVTFRIPPGAPSAGGS [r16_605_TrROS]
Data returned: 0.33

Data request: What about this sequence? SAGGSAGGSAGAYRVEVNVELTPEAREAFLKNPELPADAEIPVVVSGRVEPVPLGPEGVLSAGGSAGGSAGG [r17_194_TrMRF]
Data returned: 0.0793

Data request: What about this sequence? SAGGMMEIEVEIEKLEDGTYRIRIRVRLPNGEEVEKEMTFDRETGTLTITFDRPIEPDQIVEIEIEPSAGGS [r16_95_TrROS_Hall]
Data returned: 4.41

Data request: What about this sequence? SAGGSAGGDPNKPPPPKQIEIPIPPDNITDVEPNPDGFYFMEFNLPDGDSITIIVYPDGNIHIMSAGGSAGG [r6_119_TrROS]
Data returned: 4.25

Data request: What about this sequence? SAGGSAGGSAGKKIPKKIIPKINLKVELVKSKIYYDKKKKKIVKIEYEFKITYPNGFKATSAGGSAGGSAGG [r11_890_TrMRF]
Data returned: 1.97

Data request: What about this sequence? SAGGSAGMPPDEPVVKTTVIPTSTAVKDAAGNPLTPEELAAAVKAAYPDVEVSFGPGNTLTITLTRSAGGSA [r15_645_JUSTAS]
Data returned: 1.11

Data request: What about this sequence? SAGGPVFLGFEEALEFIEKAFENGEDVVVVARLPDGGLVVLEASGPDLDLRVVAVIPLPPPEEDPEKYSAGG [r13_839_TrMRF]
Data returned: 0.268

Data request: What about this sequence? SAGGDPVRIFIMSGNGIFPIEIPLDPGEKVEFEMKFNGQEVTITITPGDGEIEIEMPPGFNIMALEPSAGGS [r16_761_TrROS]
Data returned: 2.05

Data request: What about this sequence? SAGGSAGGSAGGSVAYVAPDGDKLIVRVVRPDGSVEEKEFDSLEDLKTLPDDVPVAFLVSAGGSAGGSAGGS [r4_447_TrMRF]
Data returned: -0.0498

Data request: What about this sequence? SAGGSAMTTIVKTEPPTLDEEGNPYIRLTIKFPNGGTTTITLAPSELPQYLADLPPGFEVEEINPLSAGGSA [r15_339_JUSTAS]
Data returned: 2.69

Data request: What about this sequence? SAGGSAGGSASSLEESLRAELPEGKPARIEVKVELEKTPNGKLKVKEVKVTVTLPNGPVVGSAGGSAGGSAG [r3_247_JUSTAS]
Data returned: 1.52

Data request: What about this sequence? SEYSRIEFEDYTVLVVKKTLPNGKPLYLVRLYRKEDPKVDPVEVDSPEEAEEAVKELLKKHLPGEEVEKESA [r9_749_TrMRF]
Data returned: 3.3

Data request: What about this sequence? SAMPAENMTPEEAAELALAYVERFRAEVEALGGPIPADTEIVVPVTLEGPPVEIKITFINPDEVEVEVASAG [r14_501_TrMRF]
Data returned: 1.17

Data request: What about this sequence? SAGGSITVSEDESNLTFTIPVPPTEPLTPEEVRAAAEALLAELGPDIRVLSIERLPDGGYRVEAEVRSAGGS [r8_103_JUSTAS]
Data returned: 1.6
